Test system: 168753-222-R-J1-PDC complex spheroid viability;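 further: viability measured after seven days of drug exposure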
assay text: Anticancer human tumor 168753-222-R-J1-PDC patient-derived bladder carcinoma cell line growth inhibition [CLK]
details: curve of first compound; second compound 0.316 µM
pIC50: −log10 of the molar value.
measure: pIC50

Previously resolved entries follow.
C#Cc1c(F)ccc2cc(O)cc(-c3ncc4c(N5CC6CCC(C5)N6)nc(OCC56CCCN5CC(F)C6)nc4c3F)c12 (stereo unspecified) + CN1CCN(c2cc(C(=O)Nc3cc4cc(-c5cnn(C)c5)ccc4cn3)ccn2)CC1
> 7.50
Cn1ncnc1[C@H]1c2n[nH]c(=O)c3cc(F)cc(c23)N[C@@H]1c1ccc(F)cc1 + CN1CCN(c2cc(C(=O)Nc3cc4cc(-c5cnn(C)c5)ccc4cn3)ccn2)CC1
> 9.50
CCc1c2c(nc3ccc(O)cc13)-c1cc3c(c(=O)n1C2)COC(=O)[C@]3(O)CC + CN1CCN(c2cc(C(=O)Nc3cc4cc(-c5cnn(C)c5)ccc4cn3)ccn2)CC1
> 8.50
C=CC(=O)Nc1cc(Nc2nccc(-c3cn(C)c4ccccc34)n2)c(OC)cc1N(C)CCN(C)C + CNC(=O)c1ccc(Nc2nc(OC3CCCC3)c3c(-c4ccc5nc(C)oc5c4)c[nH]c3n2)c(OC)c1
< 6.52
O=c1[nH]cc(F)c(=O)[nH]1 + CN1CCN(c2cc(C(=O)Nc3cc4cc(-c5cnn(C)c5)ccc4cn3)ccn2)CC1
> 7.50

Next compound, please.
What value of pIC50 has been recorded for this entry: CC1(C)CCC(CN2CCN(c3ccc(C(=O)NS(=O)(=O)c4ccc(NCC5CCOCC5)c([N+](=O)[O-])c4)c(Oc4cnc5[nH]ccc5c4)c3)CC2)=C(c2ccc(Cl)cc2)C1 + CN1CCN(c2cc(C(=O)Nc3cc4cc(-c5cnn(C)c5)ccc4cn3)ccn2)CC1
> 7.50

FYI, the data here is from PubChem BioAssay AID2060626.
